# method-summary: qHTS assay to identify small molecule agonists of the estrogen receptor beta (ER-beta) signaling pathway - cell viability counter screen (AID 1259380); note: nearly all actives have a fitted effect of over 30% in size
# experimental-setup: ER-beta-bla HEK293T viability, CellTiter-Glo luminescence, 16 h; series mostly up to 92.4 µM
Inconclusive results are not listed. Active and inactive are the calls of the source. Calls come from the whole dose curve; as a rule, active = well fitted cell-killing curve with a large enough effect in the repeat runs; inconclusive = weak or mixed curves, or effect the other way; inactive = flat fitted curve, though single readings scatter.
Respond with a class label; see 1 (yes) = active, 0 (no) = inactive

# input Could you please tell me the result logged for C[C@@H](c1ncncc1F)C(O)(Cn1cncn1)c1ccc(F)cc1F (some centres undefined) in this assay?
# output 0 (no)

# input Could you please tell me the result logged for CC[N+](C)(CC)CCOC(=O)C(O)(c1ccccc1)C1CCCCC1 (centres undefined) in this assay?
# output 0 (no)

# input Could you please tell me the result logged for CC(C)(CO)[N+](=O)[O-] in this assay?
# output 0 (no)

# input Could you please tell me the result logged for C=CCOC(=O)CCC1CCCCC1 in this assay?
# output 0 (no)

# input Could you please tell me the result logged for CCCCO in this assay?
# output 0 (no)

# input Could you please tell me the result logged for CCc1cc(C2=C(C(=O)O)N(c3ccccc3C(F)(F)F)S(=O)(=O)c3ccccc32)cc2c1OCO2 in this assay?
# output 1 (yes)

# input Could you please tell me the result logged for CC(C)(C)OCC1CO1 (centres undefined) in this assay?
# output 0 (no)

# input Could you please tell me the result logged for COc1ccc(-c2nc3ccc(C4=NNC(=O)CC4C)cc3[nH]2)cc1 (centres undefined) in this assay?
# output 0 (no)

# input Could you please tell me the result logged for C1CCCNCCC1 in this assay?
# output 0 (no)

# input Could you please tell me the result logged for CCCCCCCCO[C@@H]1O[C@H](CO)[C@@H](O)[C@H](O)[C@H]1O in this assay?
# output 0 (no)

# input Could you please tell me the result logged for CCn1cc(C(=O)O)c(=O)c2cnc(N3CCNCC3)nc21 in this assay?
# output 0 (no)

# input Could you please tell me the result logged for O=[N+]([O-])c1ccc2[nH]ncc2c1 in this assay?
# output 0 (no)

# input Could you please tell me the result logged for C/C=C(/C(=C/C)c1ccc(OC(C)=O)cc1)c1ccc(OC(C)=O)cc1 in this assay?
# output 0 (no)

# input Could you please tell me the result logged for Cc1ccc(N=Nc2c(O)c(C(=O)O)cc3ccccc23)c(S(=O)(=O)O)c1 in this assay?
# output 0 (no)

# input Could you please tell me the result logged for C[C@H](CCC(=O)O)[C@H]1CC[C@H]2[C@@H]3CC[C@@H]4C[C@H](O)CC[C@]4(C)[C@H]3C[C@H](O)[C@]12C in this assay?
# output 1 (yes)

# input Could you please tell me the result logged for O=C(O)C1(C(=O)Nc2ccc(Cl)cc2Cl)CC1 in this assay?
# output 1 (yes)

# input Could you please tell me the result logged for O=S(=O)(Oc1ccc(Cl)cc1)c1ccccc1 in this assay?
# output 0 (no)

# input Could you please tell me the result logged for CCCCCC[C@@H](O)C/C=C\CCCCCCCC(=O)OC in this assay?
# output 0 (no)

# input Could you please tell me the result logged for COC(C)OC in this assay?
# output 0 (no)

# input Could you please tell me the result logged for O=C1C(O)=C(O)C(=O)C(O)=C1O in this assay?
# output 0 (no)

# input Could you please tell me the result logged for Cc1cccc(C)c1OCC(=O)N[C@@H](Cc1ccccc1)[C@@H](O)C[C@H](Cc1ccccc1)NC(=O)[C@H](C(C)C)N1CCCNC1=O in this assay?
# output 1 (yes)

# input Could you please tell me the result logged for CCCn1cnc2c1c(=O)n(CCCCC(C)=O)c(=O)n2C in this assay?
# output 0 (no)

# input Could you please tell me the result logged for CCC(C)(C)CC in this assay?
# output 0 (no)

# input Could you please tell me the result logged for COc1cc(Cl)ccc1Oc1ccc(Cl)cc1Cl in this assay?
# output 0 (no)

# input Could you please tell me the result logged for CN(Cc1ccc(C(C)(C)C)cc1)Cc1cccc2ccccc12 in this assay?
# output 1 (yes)

# input Could you please tell me the result logged for O=C(OCCc1ccccc1)c1ccccc1 in this assay?
# output 0 (no)

# input Could you please tell me the result logged for CC(CC=O)c1ccccc1 (centres undefined) in this assay?
# output 0 (no)

# input Could you please tell me the result logged for CC(C)OC(=O)C(C)N(C(=O)c1ccccc1)c1ccc(F)c(Cl)c1 (centres undefined) in this assay?
# output 0 (no)

# input Could you please tell me the result logged for O=C1CCCCCCCCCCCC(=O)OCCO1 in this assay?
# output 0 (no)

# input Could you please tell me the result logged for CCOc1ccc(O)cc1 in this assay?
# output 0 (no)

# input Could you please tell me the result logged for CC(=O)c1cccc([N+](=O)[O-])c1 in this assay?
# output 0 (no)

# input Could you please tell me the result logged for O=P(O)(OCc1ccccc1)OCc1ccccc1 in this assay?
# output 0 (no)

# input Could you please tell me the result logged for OCCNCc1ccccc1 in this assay?
# output 0 (no)

# input Could you please tell me the result logged for CC1=CC=C(C(C)C)CC1 in this assay?
# output 0 (no)

# input Could you please tell me the result logged for O=[N+]([O-])c1ccc(NCCO)c(OCCO)c1 in this assay?
# output 0 (no)

# input Could you please tell me the result logged for O=C(O)CC(=O)C(=O)O in this assay?
# output 0 (no)

# input Could you please tell me the result logged for Cc1ncc(CO)c(C=O)c1O in this assay?
# output 0 (no)

# input Could you please tell me the result logged for c1cc(CCCc2ccncc2)ccn1 in this assay?
# output 0 (no)

# input Could you please tell me the result logged for CCN(CC)CCNc1ccc(CNC=O)c2sc3ccc(OC)cc3c(=O)c12 in this assay?
# output 1 (yes)

# input Could you please tell me the result logged for C[C@@H]1C[C@H]2[C@@H]3CCC4=CC(=O)C=C[C@]4(C)[C@@]3(F)[C@@H](O)C[C@]2(C)[C@@]1(O)C(=O)COC(=O)c1ccncc1 in this assay?
# output 1 (yes)

# input Could you please tell me the result logged for COc1ccnc(CS(=O)c2nc3ccc(OC(F)F)cc3[nH]2)c1OC (centres undefined) in this assay?
# output 0 (no)

# input Could you please tell me the result logged for CCOc1ccc(N=Nc2ccc(/C=C/c3ccc(N=Nc4ccc(OCC)cc4)cc3S(=O)(=O)O)c(S(=O)(=O)O)c2)cc1 in this assay?
# output 0 (no)

# input Could you please tell me the result logged for CCCC(=O)Nc1ccc(O)c(C(C)=O)c1 in this assay?
# output 0 (no)

# input Could you please tell me the result logged for NS(=O)(=O)c1ccc(N2CCCCS2(=O)=O)cc1 in this assay?
# output 0 (no)

====

# method-summary: qHTS assay to identify small molecule antagonists of the thyroid receptor (TR) signaling pathway - cell viability counter screen (AID 743064); note: nearly all actives have a fitted effect of over 50% in size
# experimental-setup: GH3.TRE-Luc viability, CellTiter-Fluor, 24 h; series mostly up to 70.3 µM
Results filed as inconclusive are left out. The source made the active and inactive calls. Calls follow the shape of the dose curve; as a rule, active = well fitted cell-killing curve with a large enough effect in the repeat runs; inconclusive = weak or mixed curves, or effect the other way; inactive = no such curve, though single readings can be large or run the other way.
Respond with a class label; see active, inactive

# input Could you please tell me the result logged for CN(C)c1ccc(C(c2ccccc2)c2ccc(N(C)C)cc2)cc1 in this assay?
# output inactive

# input Could you please tell me the result logged for COc1cc(C(=O)OCCCN2CCCN(CCCOC(=O)c3cc(OC)c(OC)c(OC)c3)CC2)cc(OC)c1OC in this assay?
# output active

# input Could you please tell me the result logged for c1ccc(C(O[C@H]2CCCN(CCc3ccc4c(c3)OCO4)C2)c2ccccc2)cc1 in this assay?
# output active

# input Could you please tell me the result logged for CCNc1cc(O)ccc1C in this assay?
# output inactive

# input Could you please tell me the result logged for CN(C)CCCN1c2ccccc2Sc2ccccc21 in this assay?
# output active

# input Could you please tell me the result logged for CCCCC(CC)CN1C(=O)C2C3C=CC(C3)C2C1=O (stereo unspecified) in this assay?
# output active

====

# method-summary: qHTS assay to identify small molecule antagonists of the retinoid-related orphan receptor gamma (ROR-gamma) signaling pathway - cell viability counter screen (AID 1159520); note: nearly all actives have a fitted effect of over 50% in size
# experimental-setup: Tet-on RORgamma CHO cells viability, ATP luminescence, 16 h; series mostly up to 92.4 µM
Inconclusive results are not listed. Calls of active or inactive are those of the source. Calls follow the shape of the dose curve; as a rule, active = well fitted cell-killing curve with a large enough effect in the repeat runs; inconclusive = weak or mixed curves, or effect the other way; inactive = no such curve, though single readings can be large or run the other way.
Respond with a class label; see active, inactive

# input Could you please tell me the result logged for CCCCC(CC)CN1C(=O)C2C3C=CC(C3)C2C1=O (stereo not drawn) in this assay?
# output inactive

# input Could you please tell me the result logged for COc1ccc(S(=O)(=O)N2C(=O)[C@@](c3ccccc3OC)(N3C[C@H](O)C[C@H]3C(=O)N(C)C)c3cc(Cl)ccc32)c(OC)c1 in this assay?
# output inactive

# input Could you please tell me the result logged for CCC(C)(C)CC in this assay?
# output inactive

# input Could you please tell me the result logged for C=C(C)C(=O)OCCOCC in this assay?
# output inactive

# input Could you please tell me the result logged for CN(C)CCN(Cc1ccccc1)c1ccccn1 in this assay?
# output inactive

# input Could you please tell me the result logged for C=CC(=O)OCCOCCOC(=O)C=C in this assay?
# output active

# input Could you please tell me the result logged for Nc1ccc([N+](=O)[O-])c(C(F)(F)F)c1 in this assay?
# output inactive

# input Could you please tell me the result logged for CCOC(=O)C(O)c1ccccc1 (stereo not drawn) in this assay?
# output inactive
